So I've got a bunch of binders here, and I need their kon values.
subject-of-test: T1, human PD-1 protein (human, UniProt Q15116 25-167, limits assumed)
T1 construct: also called human PD-1 antigen
method-description: SPR, binding kinetics to human PD-1
Answers are plain numbers, in M⁻¹ s⁻¹.

AHF16561 (antibody, V domains shown) VH: QVQLVQSGAEVKKPGASVKVSCKASGYTFTGYWMHWVRQAPGQGLEWIGMIHPNSDTTIYNEKFKNRVTMTRDTSISTAYMELSRLRSDDTAVYYCAGTDQAAWAGFWGQGTTVTVSS VL: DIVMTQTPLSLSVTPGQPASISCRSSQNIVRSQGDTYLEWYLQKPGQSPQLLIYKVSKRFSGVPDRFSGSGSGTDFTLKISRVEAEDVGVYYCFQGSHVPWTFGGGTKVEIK : 183000
AHF16569 (antibody, V domains shown) VH: QVQLVQSGAEVKKPGASVKVSCKASGYTFTGYWMHWVRQAPGQGLEWIGMIHPNSDTTIYNWKFKNRVTMTRDTSISTAYMELSRLRSDDTAVYYCAGTDQEAWAAFWGQGTTVTVSS VL: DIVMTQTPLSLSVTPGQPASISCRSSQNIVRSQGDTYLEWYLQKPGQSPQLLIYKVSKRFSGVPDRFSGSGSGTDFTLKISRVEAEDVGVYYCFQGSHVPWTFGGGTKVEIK : 199000

kon measured on AHF16564 (antibody, V domains shown) VH: QVQLVQSGAEVKKPGASVKVSCKASGYTFTGYWMHWVRQAPGQGLEWIGMIHPNSDTTTYNEKFKNRVTMTRDTSISTAYMELSRLRSDDTAVYYCAGTDQEAWAGFWGQGTTVTVSS VL: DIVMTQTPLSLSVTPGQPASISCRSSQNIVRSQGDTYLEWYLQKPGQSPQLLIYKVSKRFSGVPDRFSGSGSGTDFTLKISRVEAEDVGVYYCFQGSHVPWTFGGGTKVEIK = 230000

Values from patent US20240034796A1
